Cited source: patent US8546443B2

# study-system: cytoplasmic kinase domain of human IGF-1R (IGF-1R-GST) (Homo sapiens)
# Construct: cytoplasmic kinase domain of human IGF-1R (amino acids 964-1370); GST (glutathione-S-transferase)
# Sequence (P08069 964-1367 limits assumed): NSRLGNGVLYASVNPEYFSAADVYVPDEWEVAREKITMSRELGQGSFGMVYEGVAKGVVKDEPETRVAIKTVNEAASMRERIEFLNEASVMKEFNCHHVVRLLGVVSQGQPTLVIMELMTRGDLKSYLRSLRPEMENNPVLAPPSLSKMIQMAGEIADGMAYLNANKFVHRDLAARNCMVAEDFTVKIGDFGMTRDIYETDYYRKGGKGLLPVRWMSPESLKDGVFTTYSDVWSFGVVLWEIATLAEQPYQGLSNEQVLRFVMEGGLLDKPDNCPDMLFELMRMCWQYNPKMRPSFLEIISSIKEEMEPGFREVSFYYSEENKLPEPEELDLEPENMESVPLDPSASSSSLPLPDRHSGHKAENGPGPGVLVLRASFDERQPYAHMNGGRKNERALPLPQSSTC
# protocol-summary: Insulin-like growth factor-1 receptor (IGF-1R) kinase assay (DELFIA)
# conditions-used: IGF-1R-GST kinase activity, read-out: IGF1R IC50
reported-metric: pIC50
By convention, pIC50 is the negative base-10 log of a molar concentration.

Some entries whose results are on file:
molecule | study-system | pIC50
COc1cc(N2CCN(C(=O)CN(C)C)CC2)ccc1Nc1ncc(Cl)c(NCc2cccc3c2C(C)(C)C(=O)N3)n1 | cytoplasmic kinase domain of human IGF-1R (IGF-1R-GST) (Homo sapiens) | 9.00
CC1(C)C(=O)Nc2cccc(CNc3nc(Nc4ccc(C5CCCN(CC(O)C(F)(F)F)C5)cc4)ncc3Cl)c21 (racemic) | cytoplasmic kinase domain of human IGF-1R (IGF-1R-GST) (Homo sapiens) | 8.70
COc1cc(N2CC3CC2CN3C2CCC2)ccc1Nc1ncc(C(F)(F)F)c(NCc2cccc3c2C(C)(C)C(=O)N3)n1 (stereo not drawn) | cytoplasmic kinase domain of human IGF-1R (IGF-1R-GST) (Homo sapiens) | 8.52

Answer with reported pIC50 of Cc1cc(C2CCCN(CC(O)C(F)(F)F)C2)ccc1Nc1ncc(Br)c(NCc2cccc3c2C(C)(C)C(=O)N3)n1 (racemic)
8.70

Answer with reported pIC50 of COCCN1CCC(c2ccc(Nc3ncc(Br)c(NCc4cccc5c4C(C)(C)C(=O)N5)n3)cc2)CC1
9.17

Answer with reported pIC50 of CCOC(=O)N1CCC(N2CCN(c3ccc(Nc4ncc(C(F)(F)F)c(NCc5cccc6c5C(C)(C)C(=O)N6)n4)c(OC)c3)CC2)CC1
8.00

---

# study-system: cytoplasmic kinase domain of human IGF-1R (IGF-1R-GST) (Homo sapiens)
# Construct: cytoplasmic kinase domain of human IGF-1R (amino acids 964-1370); GST (glutathione-S-transferase)
# protocol-summary: Insulin-like growth factor-1 receptor (IGF-1R) kinase assay (DELFIA)
# conditions-used: IGF-1R-GST kinase activity, read-out: IGF1R IC50
reported-metric: IC50 (nM)
Give just the number in nM; leave the unit off.

Some entries whose results are on file:
molecule | reported-metric | unit-spec | numeric-result
COc1cc(N2CCC(N(C)CCO)CC2)ccc1Nc1ncc(C(F)(F)F)c(NCc2cccc3c2CC(=O)N3)n1 [Example I-186] | IC50 | nM | 4
CCOc1cc(N2CCN(C(C)C)CC2)ccc1Nc1ncc(C(F)(F)F)c(NCc2cccc3c2CC(=O)N3)n1 [Example I-139] | IC50 | nM | 8

Answer with reported IC50 of Cc1cc(Nc2ncc(C(F)(F)F)c(NCc3cccc4c3C(C)(C)C(=O)N4)n2)c(F)cc1C1CCN(CC(C)(C)O)CC1 [Example I-311]
15

Answer with reported IC50 of CC1(C)C(=O)Nc2cccc(CNc3nc(Nc4ccc(C5CCN(C6COC6)CC5)cc4)ncc3Cl)c21 [Example I-93]
5

Answer with reported IC50 of COc1cc(N2CCC(N3CC[C@H](O)C3)CC2)ccc1Nc1ncc(C(F)(F)F)c(NCc2cccc3c2C(C)(C)C(=O)N3)n1 [Example I-172]
0.4

---

# Tested on: TC-71 (Ewing's sarcoma) cells
# protocol-summary: Cell proliferation assay, TC-71 (Alamar Blue)
# Format: cell-based
# conditions-used: 72 h with compound, EC50 ranges as class symbols
Reported EC50 by item:

molecule | EC50
Cc1cc(C2CCCN(CC(C)(C)O)C2)ccc1Nc1ncc(Br)c(NCc2cccc3c2C(C)(C)C(=O)N3)n1 (racemic) [Example I-318] | < 50 nM
COCCN1CCCC(c2ccc(Nc3ncc(C(F)(F)F)c(NCc4cccc5c4C(C)(C)C(=O)N5)n3)c(C)c2)C1 (racemic) [Example I-356] | < 50 nM
CNC(=O)CN1CCCC(c2ccc(Nc3ncc(Br)c(NCc4cccc5c4C(C)(C)C(=O)N5)n3)cc2)C1 (racemic) [Example I-365] | 50 to 250 nM
COCCN1CCC(c2ccc(Nc3ncc(Cl)c(NCc4cccc5c4C(C)(C)C(=O)N5)n3)c(C)c2)CC1 [Example I-218] | < 50 nM

Answer with reported EC50 of COc1cc(N2CCNCC2)ccc1Nc1ncc(C(F)(F)F)c(NCc2cccc3c2C(C)(C)C(=O)N3)n1 [Example I-31]
< 50 nM

Answer with reported EC50 of COCCN1CCN(c2ccc(Nc3ncc(Cl)c(NCc4cccc5c4C(C)(C)C(=O)N5)n3)c(OC)c2)CC1 [Example I-386]
< 50 nM

Answer with reported EC50 of Cc1cc(C2CCN(C(=O)N(C)C)CC2)ccc1Nc1ncc(Cl)c(NCc2cccc3c2C(C)(C)C(=O)N3)n1 [Example I-67]
50 to 250 nM

Answer with reported EC50 of Cc1cc(Nc2ncc(Br)c(NCc3cccc4c3C(C)(C)C(=O)N4)n2)ccc1C1CCN(CC(C)(C)O)CC1 [Example I-324]
< 50 nM

Answer with reported EC50 of Cc1cc(N2CCN(CC(C)(C)O)CC2)ccc1Nc1ncc(Br)c(NCc2cccc3c2C(C)(C)C(=O)N3)n1 [Example I-317]
< 50 nM

---

# study-system: cytoplasmic kinase domain of human IGF-1R (IGF-1R-GST) (Homo sapiens)
# Construct: cytoplasmic kinase domain of human IGF-1R (amino acids 964-1370); GST (glutathione-S-transferase)
# protocol-summary: Insulin-like growth factor-1 receptor (IGF-1R) kinase assay (DELFIA)
# conditions-used: IGF-1R-GST kinase activity, read-out: IGF1R IC50
# Method: Insulin-Like Growth Factor-1 Receptor (IGF-1R)-Kinase Assay The kinase activity is measured by DELFIA® assay (dissociation-enhanced lanthanide fluorescence immunoassay, Perkin Elmer). […] Enzyme activity is measured in the presence of substances and a control substance. […] After 40 min at RT the reactions are stopped with 50 μL of stop solution (250 mM EDTA, 20 mM HEPES pH 7.4). […] The fluorescence signal is measured with a Wallac Victor TRF Reader. […]
Reported pIC50 by item:
By convention, pIC50 is the negative base-10 log of a molar concentration.

molecule | numeric-result
Cc1cc(C2CCN(C(=O)CN(C)C)CC2)ccc1Nc1ncc(Cl)c(NCc2cccc3c2C(C)(C)C(=O)N3)n1 | 9.00
CN(C)CC(=O)N1CCC(c2ccc(Nc3ncc(Cl)c(NCc4cccc5c4C(C)(C)C(=O)N5)n3)cc2)CC1 | 8.15
COc1cc(N2CCC(C(=O)NC3CCN(C)CC3)CC2)ccc1Nc1ncc(C(F)(F)F)c(NCc2cccc3c2C(C)(C)C(=O)N3)n1 | 8.70
Cc1cc(Nc2ncc(Cl)c(NCc3cccc4c3C(C)(C)C(=O)N4)n2)ccc1C1CCN(CC(C)(C)O)CC1 | 9.40
COC(=O)N1CCN(c2ccc(Nc3ncc(C(F)(F)F)c(NCc4cccc5c4C(C)(C)C(=O)N5)n3)c(OC)c2)C[C@H]1C | 7.54

Answer with reported pIC50 of Cc1cc(C2CCN(CC(C)(C)O)CC2)ccc1Nc1ncc(C(F)(F)F)c(NCc2cccc3c2C(C)(C)C(=O)N3)n1
9.00

Answer with reported pIC50 of CNC(=O)CN1CCCC(c2ccc(Nc3ncc(Br)c(NCc4cccc5c4C(C)(C)C(=O)N5)n3)c(C)c2)C1 (racemic)
8.70

Answer with reported pIC50 of CCNC(=O)N1CCC(c2ccc(Nc3ncc(Cl)c(NCc4cccc5c4C(C)(C)C(=O)N5)n3)c(C)c2)CC1
8.00

---

# Test system: TC-71 (Ewing's sarcoma) cells
# protocol-summary: Cell proliferation assay, TC-71 (Alamar Blue)
# Type: cell-based
# conditions-used: 72 h with compound, EC50 ranges as class symbols
pEC50: −log10 of the molar value.
reported-metric: pEC50

Some entries whose results are on file:
compound | pEC50
CC1(C)C(=O)Nc2cccc(CNc3nc(Nc4ccc(C5CCCN(CCO)C5)cc4)ncc3Br)c21 (racemic) [Example I-358] | > 7.30
CC(C)(O)CN1CCC(c2ccc(Nc3ncc(Cl)c(NCc4cccc5c4C(C)(C)C(=O)N5)n3)c3c2OCO3)CC1 [Example I-341] | > 7.30
CNC1(C(=O)N2CCC(c3ccc(Nc4ncc(Cl)c(NCc5cccc6c5C(C)(C)C(=O)N6)n4)cc3)CC2)CC1 [Example I-299] | > 7.30
CC(C)(O)CN1CCC(c2ccc(Nc3ncc(Cl)c(NCc4cccc5c4C(C)(C)C(=O)N5)n3)c(OC(F)(F)F)c2)CC1 [Example I-340] | 6.60 to 7.30
COCCN1CCC[C@@H](c2ccc(Nc3ncc(Br)c(NCc4cccc5c4C(C)(C)C(=O)N5)n3)c(C)c2)C1 [Example I-362] | > 7.30
COCCN1CCC[C@H](c2ccc(Nc3ncc(Br)c(NCc4cccc5c4C(C)(C)C(=O)N5)n3)c(C)c2)C1 [Example I-363] | 6.60 to 7.30

Attention now shifts to the item below.
Answer with reported pEC50 of Cc1cc(C2CCCN(CC(C)(C)O)C2)ccc1Nc1ncc(Cl)c(NCc2cccc3c2C(C)(C)C(=O)N3)n1 (racemic) [Example I-328]
> 7.30
